Readings of IC50 for the listed compounds
Target: mALDH1a2 (Mus musculus, UniProt Q62148)
Sequence (Q62148 1-518): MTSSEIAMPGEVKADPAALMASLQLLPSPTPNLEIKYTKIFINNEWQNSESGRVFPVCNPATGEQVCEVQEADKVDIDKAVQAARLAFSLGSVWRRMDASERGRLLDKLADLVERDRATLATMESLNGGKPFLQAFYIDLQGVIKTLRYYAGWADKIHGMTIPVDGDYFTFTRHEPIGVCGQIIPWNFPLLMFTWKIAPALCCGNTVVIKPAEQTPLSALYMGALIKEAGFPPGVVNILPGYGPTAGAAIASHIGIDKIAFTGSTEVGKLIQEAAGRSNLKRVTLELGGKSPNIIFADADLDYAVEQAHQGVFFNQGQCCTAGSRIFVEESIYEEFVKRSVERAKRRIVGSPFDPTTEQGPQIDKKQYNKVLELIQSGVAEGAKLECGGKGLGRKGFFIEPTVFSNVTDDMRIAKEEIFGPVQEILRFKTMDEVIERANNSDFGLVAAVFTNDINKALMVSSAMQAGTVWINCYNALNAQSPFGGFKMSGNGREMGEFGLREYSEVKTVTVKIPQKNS
Assay: Aldh1a2 enzyme inhibition assay (resorufin fluorescence), mouse enzyme
Conditions: recombinant enzyme, 20° C., activity level classes
parameter: IC50

# compound, parameter, measured result
records = [
    ("O=C1CCc2cc(NC(=O)c3ccncc3-c3ccccc3)cc(Cl)c2N1", "IC50", "0.1 to 0.25 µM"),
    ("CCc1ncsc1C(=O)Nc1cc(C)c2c(c1)C1CC1C(=O)N2 (stereo not drawn)", "IC50", "< 0.1 µM"),
    ("Cc1cc(NC(=O)c2ccncc2-c2cccc(O)c2)cc2c1NC(=O)CC2", "IC50", "1 to 5 µM"),
    ("Cc1cc(NC(=O)c2scnc2CC2CC2)cc2c1NC(=O)CC2", "IC50", "0.25 to 1 µM"),
    ("O=C1CCc2cc(NC(=O)c3ncsc3CC(F)(F)F)cc(Cl)c2N1", "IC50", "0.25 to 1 µM"),
    ("O=C(Nc1cc(Cl)c2c(c1)C1CC1C(=O)N2)c1scnc1CC(F)(F)F (stereo not drawn) [Compound 42]", "IC50", "1 to 5 µM"),
    ("Cc1cc(NC(=O)c2ncsc2CC(F)(F)F)cc2c1NC(=O)C1CC21 (stereo not drawn)", "IC50", "< 0.1 µM"),
    ("O=C1CCc2cc(NC(=O)c3ccncc3-c3ccccc3F)ccc2N1", "IC50", "1 to 5 µM"),
    ("CCc1cnsc1C(=O)Nc1cc(C)c2c(c1)C1CC1C(=O)N2 (stereo not drawn)", "IC50", "< 0.1 µM"),
]
